- TESTED SYSTEM: VHL + Brd4^BD2 (Homo sapiens, UniProt O60885+P40337)
- Construct: VHL (54-213); Brd4BD2 (333-460); His6 with TEV cleavage site (N, cleaved yes); made in house; host or cells: E. coli BL21(DE3) (VCB)
- EXPERIMENT: SPR ternary binding of PROTAC:Brd4^BD2 complex to immobilized VHL
- MEASUREMENT CONDITIONS: ternary (+ Brd4^BD2), 298.15 K, single-cycle, kinetic fit
Would you kindly list pKd for each of these compounds?
When answering, recall that pKd equals minus log10 of the concentration in mol/L, and write that number alone.

Exercise: Record lookup: for VHL + Brd4^BD2 (Homo sapiens, UniProt O60885+P40337), what pKd belongs to CC(=O)N1c2ccc(-c3ccc(C(=O)NCCOCCOCC(=O)N[C@H](C(=O)N4C[C@H](O)C[C@H]4C(=O)NCc4ccc(-c5scnc5C)cc4)C(C)(C)C)cc3)cc2[C@H](Nc2ccc(Cl)cc2)C[C@@H]1C ?
Solution: 6.33

Exercise: Quick one: CC(=O)N1c2ccc(-c3ccc(C(=O)NCCOCCOCCOCCOCC(=O)N[C@H](C(=O)N4C[C@H](O)C[C@H]4C(=O)NCc4ccc(-c5scnc5C)cc4)C(C)(C)C)cc3)cc2[C@H](Nc2ccc(Cl)cc2)C[C@@H]1C
Solution: 6.73

Exercise: Please answer likewise for CC(=O)N[C@H](C(=O)N1C[C@H](O)C[C@H]1C(=O)NCc1ccc(-c2scnc2C)cc1)C(C)(C)SCCCCCCNC(=O)C[C@@H]1N=C(c2ccc(Cl)cc2)c2c(sc(C)c2C)-n2c(C)nnc21
Solution: 7.62

* * *

- TESTED SYSTEM: VHL (Homo sapiens, UniProt P40337)
- Construct: VHL (54-213); His6 with TEV cleavage site (N, cleaved yes); made in house; host or cells: E. coli BL21(DE3)
- EXPERIMENT: SPR binary binding of PROTAC to immobilized VHL
- MEASUREMENT CONDITIONS: binary (PROTAC alone), 285.15 K, multicycle, kinetic fit
MEASUREMENT NAME: Kd (µM)
// note: answer is a bare numeric in µM

Exercise: Could you tell me which Kd is on file for CC(=O)N1c2ccc(-c3ccc(C(=O)NCCOCCOCCOCCOCC(=O)N[C@H](C(=O)N4C[C@H](O)C[C@H]4C(=O)NCc4ccc(-c5scnc5C)cc4)C(C)(C)C)cc3)cc2[C@H](Nc2ccc(Cl)cc2)C[C@@H]1C [MZP55] ?
Solution: 0.069

Exercise: Likewise for CC(=O)N[C@H](C(=O)N1C[C@H](O)C[C@H]1C(=O)NCc1ccc(-c2scnc2C)cc1)C(C)(C)SCCCCCCNC(=O)C[C@@H]1N=C(c2ccc(Cl)cc2)c2c(sc(C)c2C)-n2c(C)nnc21 [AT1] ?
Solution: 0.11
